Where these numbers come from: ChEMBL document CHEMBL2040713

- Assay Details: Drug metabolism in human liver microsomes at 5 uM after 15 mins
- Type: ADME, Microsome
- Experimental Context: read-out: Drug metabolism
Threshold check on metabolised at 0.25 h, 5 µM: at or above 70% gives T, strictly below gives F.

1) CN1CCCCN(C)S(=O)(=O)NC(=O)c2ccc3c(C4CCCCC4)c(n(C)c3c2)-c2ccccc2OCC1=O = T
2) CN1CCOCCN(C)S(=O)(=O)NC(=O)c2ccc3c(C4CCCCC4)c(n(C)c3c2)-c2ccccc2OCC1=O = F
3) COc1ccc2c(c1)OCC(=O)N(C)CCCCN(C)S(=O)(=O)NC(=O)c1ccc3c(C4CCCCC4)c-2n(C)c3c1 = T
4) CN1CCOCCN(C)S(=O)(=O)NC(=O)c2ccc3c(C4CCCCC4)c(n(C4CCCC4)c3c2)-c2ccccc2OCC1=O = T
5) O=C1Cn2c(-c3ccoc3)c(C3CCCCC3)c3ccc(cc32)C(=O)NCCCCCCN1 = T
6) O=C1Cn2c(-c3ccoc3)c(C3CCCCC3)c3ccc(cc32)C(=O)NCC/C=C/CCCN1 = T

---

- Assay Details: Volume of distribution at steady state in Sprague-Dawley rat at 2 mg/kg, iv and 10 mg/kg, po
- Type: ADME, organism-based
- Experimental Context: in vivo, read-out: Vdss
Reported Vd by item:
Readout Type: Vd

1) CN1CCCCN(C)S(=O)(=O)NC(=O)c2ccc3c(C4CCCCC4)c(n(C)c3c2)-c2ccccc2OCC1=O = 2.6 L/kg
2) CN1CCOCCN(C)S(=O)(=O)NC(=O)c2ccc3c(C4CCCCC4)c(n(C)c3c2)-c2ccccc2OCC1=O = 7 L/kg
3) CN1CCCCCNC(=O)Cn2c(-c3ccoc3)c(C3CCCCC3)c3ccc(cc32)C(=O)NS1(=O)=O = 2.4 L/kg

---

- Assay Details: Inhibition of purified HCV NS5B Cdelta21 polymerase
- Set-up: species or system Hepacivirus hominis
Readout Type: log10 IC50 (log10 of the value in µM)

1. CC(C)n1c2c(C3CCCCC3)c3ccc(cc31)C(=O)NS(=O)(=O)N(C)CCOCCN(C)C(=O)COc1ccccc1-2 = 0.22
2. CN1CCN2CCN(CC2)C(=O)COc2ccccc2-c2c(C3CCCCC3)c3ccc(cc3n2C)C(=O)NS1(=O)=O = -0.85
3. CN1CCCCN(C)S(=O)(=O)NC(=O)c2ccc3c(C4CCCCC4)c(n(C)c3c2)-c2ccccc2OCC1=O = -1.01
4. O=C1Cn2c(-c3ccoc3)c(C3CCCCC3)c3ccc(cc32)C(=O)NCCCCCCN1 = 0.98
5. CN1CCCCCNC(=O)COc2ccc(F)cc2-c2c(C3CCCCC3)c3ccc(cc3n2C)C(=O)NS1(=O)=O = -1.06
6. O=C1Cn2c(-c3ccoc3)c(C3CCCCC3)c3ccc(cc32)C(=O)NCC/C=C/CCN1 = 0.34
7. COc1ccc(-c2c(C3CCCCC3)c3ccc4cc3n2CC(=O)NCCN(C)CCNS(=O)(=O)NC4=O)cc1 = -0.36
8. CN1CCOCCN(C)S(=O)(=O)NC(=O)c2ccc3c(C4CCCCC4)c(n(C4CCCC4)c3c2)-c2ccccc2OCC1=O = 0.17
9. CN1CCOCCN(C)S(=O)(=O)NC(=O)c2ccc3c(C4CCCCC4)c(n(C)c3c2)-c2ccccc2OCC1=O = -0.96
10. COc1ccc(-c2c(C3CCCCC3)c3ccc4cc3n2CC(=O)NCCCCN(C)S(=O)(=O)NC4=O)cc1 = -0.74
11. COc1ccc2c(c1)OCC(=O)N(C)CCCCN(C)S(=O)(=O)NC(=O)c1ccc3c(C4CCCCC4)c-2n(C)c3c1 = -1.27
12. CN1CCCCCNC(=O)COc2ccccc2-c2c(C3CCCCC3)c3ccc(cc3n2C)C(=O)NS1(=O)=O = -1.48
13. CN1CCCCNC(=O)COc2ccccc2-c2c(C3CCCCC3)c3ccc(cc3n2C)C(=O)NS1(=O)=O = 0.28
14. COc1ccc2c(c1)OCC(=O)N(C)CCOCCN(C)S(=O)(=O)NC(=O)c1ccc3c(C4CCCCC4)c-2n(C)c3c1 = -1.25
15. CN1CCCCNC(=O)Cn2c(-c3ccoc3)c(C3CCCCC3)c3ccc(cc32)C(=O)NS1(=O)=O = -0.96
16. CN1CCCCCNC(=O)COc2cc(F)ccc2-c2c(C3CCCCC3)c3ccc(cc3n2C)C(=O)NS1(=O)=O = -0.96
17. CN1CCCCCNC(=O)Cn2c(-c3ccc(Cl)cc3)c(C3CCCCC3)c3ccc(cc32)C(=O)NS1(=O)=O = -0.72

---

- Assay Details: Apparent permeability from apical to basolateral side of human Caco2 cells
- Assay type: ADME, cell-based
- Experimental Context: Caco-2
Readout Type: Papp A→B

1. O=C1Cn2c(-c3ccoc3)c(C3CCCCC3)c3ccc(cc32)C(=O)NS(=O)(=O)C/C=C/CCN1 = < 10 nm/s

---

- Assay Details: Ratio of drug level in liver to plasma in Sprague-Dawley rat at 2 mg/kg, iv and 10 mg/kg, po after 7 hrs
- Assay type: ADME, organism-based
Readout Type: Kp at 7 h

1. CN1CCOCCN(C)S(=O)(=O)NC(=O)c2ccc3c(C4CCCCC4)c(n(C)c3c2)-c2ccccc2OCC1=O = 64
2. CN1CCCCCNC(=O)Cn2c(-c3ccoc3)c(C3CCCCC3)c3ccc(cc32)C(=O)NS1(=O)=O = 150
3. CN1CCCCN(C)S(=O)(=O)NC(=O)c2ccc3c(C4CCCCC4)c(n(C)c3c2)-c2ccccc2OCC1=O = 99

---

- Assay Details: Drug metabolism in human liver microsomes at 5 uM after 15 mins
- Format: ADME, Microsome
- Experimental Context: read-out: Drug metabolism
Mark criterion met only when metabolised at 0.25 h, 5 µM stays strictly below 70%. Values equal to the cut-off are criterion not met.

1) CN1CCCCCNC(=O)COc2ccc(F)cc2-c2c(C3CCCCC3)c3ccc(cc3n2C)C(=O)NS1(=O)=O = criterion met
2) CC(C)n1c2c(C3CCCCC3)c3ccc(cc31)C(=O)NS(=O)(=O)N(C)CCOCCN(C)C(=O)COc1ccccc1-2 = criterion met
3) O=C1Cn2c(-c3ccoc3)c(C3CCCCC3)c3ccc(cc32)C(=O)NCC/C=C/CCN1 = criterion not met
4) CN1CCCCCNC(=O)Cn2c(-c3ccoc3)c(C3CCCCC3)c3ccc(cc32)C(=O)NS1(=O)=O = criterion met
5) CN1CCCCCNC(=O)COc2cc(F)ccc2-c2c(C3CCCCC3)c3ccc(cc3n2C)C(=O)NS1(=O)=O = criterion not met
6) CN1CCN2CCN(CC2)C(=O)COc2ccccc2-c2c(C3CCCCC3)c3ccc(cc3n2C)C(=O)NS1(=O)=O = criterion met
